Where do the numbers come from? From patent US20240391926A1.

Entries and their pIC50 values follow.
- Target entity: Kv1.3 potassium channel (Homo sapiens, UniProt P22001)
- Sequence (P22001 whole entry): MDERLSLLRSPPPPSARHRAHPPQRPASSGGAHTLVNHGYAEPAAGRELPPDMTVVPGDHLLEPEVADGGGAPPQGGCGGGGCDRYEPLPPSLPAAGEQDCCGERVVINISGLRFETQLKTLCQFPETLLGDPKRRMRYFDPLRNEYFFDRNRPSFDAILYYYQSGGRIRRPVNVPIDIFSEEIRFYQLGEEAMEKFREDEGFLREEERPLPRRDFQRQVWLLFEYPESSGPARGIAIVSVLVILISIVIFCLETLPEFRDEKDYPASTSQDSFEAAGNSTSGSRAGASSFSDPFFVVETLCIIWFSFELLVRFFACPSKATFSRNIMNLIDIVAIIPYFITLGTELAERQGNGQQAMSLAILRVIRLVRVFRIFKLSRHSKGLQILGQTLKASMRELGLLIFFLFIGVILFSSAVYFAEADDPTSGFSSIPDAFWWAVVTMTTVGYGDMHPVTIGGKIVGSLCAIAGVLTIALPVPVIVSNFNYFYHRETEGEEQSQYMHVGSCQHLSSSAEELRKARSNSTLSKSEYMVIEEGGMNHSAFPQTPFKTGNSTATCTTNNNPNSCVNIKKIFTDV
- Experimental protocol: Kv1.3 potassium channel blocker activity, automated whole-cell patch clamp (Patchliner) in CHO-K1 cells stably expressing Kv1.3
- Applied conditions: 30 nM-100 μM
- Procedure: This assay is used to evaluate the disclosed compounds' activities as Kv1.3 potassium channel blockers. CHO-K1 cells stably expressing Kv1.3 were grown in DMEM containing 10% heat-inactivated FBS, 1 mM sodium pyruvate, 2 mM L-glutamine, and G418 (500 μg/ml). Cells were grown in culture flasks at 37° C. in a 5% CO2-humidified incubator. […]
pIC50: −log10 of the molar value.

Known pIC50 results, listed for orientation:
[
  {
    "Compound": "Cc1[nH]ncc1C(=O)N1CC[C@]2(C1)C(=O)Nc1cc(Cl)c(Cl)cc12 [Compound 71]",
    "pIC50": "> 6.00"
  },
  {
    "Compound": "O=C(c1cc[nH]c1)N1CC[C@]2(C1)C(=O)Nc1cc(Cl)c(Cl)cc12 [Compound 135]",
    "pIC50": "> 6.00"
  }
]

Kindly state the measured pIC50 obtained for N[C@H](CO)C(=O)N1CC[C@]2(C1)C(=O)Nc1cc(Cl)c(Cl)cc12 [Compound 43] with Kv1.3 potassium channel (Homo sapiens, UniProt P22001).
> 6.00

Next compound up: O=C([C@H]1CC[C@@](O)(CO)C1)N1CC[C@]2(C1)C(=O)Nc1cc(Cl)c(Cl)cc12 (relative stereo) [Compound 97]
> 6.00

Next compound up: C[C@H]1NCC[C@@H]1C(=O)N1CC[C@]2(C1)C(=O)Nc1cc(Cl)c(Cl)cc12 (relative stereo) [Compound 40]
> 6.52

Next compound up: O=C([C@@H]1CC[C@@H](CO)C1)N1CC[C@]2(C1)C(=O)Nc1cc(Cl)c(Cl)cc12 (single isomer, unassigned; isomer 2) [Compound 100]
> 5.52

Next compound up: C[C@@H](O)CC(=O)N1CC[C@]2(C1)C(=O)Nc1cc(Cl)c(Cl)cc12 [Compound 89]
> 5.52

Next compound up: O=C([C@H]1CC[C@@H](O)[C@H](O)C1)N1CC[C@]2(C1)C(=O)Nc1cc(Cl)c(Cl)cc12 (single isomer, unassigned; isomer 1) [Compound 107]
> 6.00

Next compound up: O=C([C@H]1CCCO1)N1CC[C@]2(C1)C(=O)Nc1cc(Cl)c(Cl)cc12 [Compound 20]
> 5.00
